# Test system: E.cloacae C4009
# PROTOCOL_NOTES: In vitro antibacterial activity, minimum inhibitory concentration
# Type: cell-based
# TEST_CONTEXT: Enterobacter cloacae; E.cloacae C4009; read-out: Minimum Inhibitory Concentration (MIC)
ENDPOINT_LABEL: MIC (µg/mL)
Reply numerically in µg/mL, unit not repeated.

Sample records with MIC:
{"COMPOUND": "CO/N=C(\\C(=O)N[C@@H]1C(=O)N2C(C(=O)[O-])=C(C[n+]3cccc4c3CCC4)CS[C@H]12)c1csc(N)n1 [CPR, Cefpirome, reference compound]", "EXPERIMENTAL_SYSTEM": "E.cloacae C4009", "MIC, µg/mL": 0.013}
{"COMPOUND": "CO/N=C(\\C(=O)N[C@@H]1C(=O)N2C(C(=O)[O-])=C(C[n+]3ccc4[nH]c(=NC#N)[nH]c4c3)CS[C@H]12)c1nsc(N)n1", "EXPERIMENTAL_SYSTEM": "E.cloacae C4009", "MIC, µg/mL": 0.05}

Turning to the following compound.
*Q* Would you kindly share the measured MIC for CO/N=C(\C(=O)N[C@@H]1C(=O)N2C(C(=O)[O-])=C(C[n+]3ccc4c(c3)[nH]c(=O)n4C)CS[C@H]12)c1nsc(N)n1 ?
*A* 0.013
